Values were extracted from ChEMBL document CHEMBL3351472.

Biological target: Vitamin D3 receptor (Rattus norvegicus) (UniProt P13053)
Sequence (whole entry): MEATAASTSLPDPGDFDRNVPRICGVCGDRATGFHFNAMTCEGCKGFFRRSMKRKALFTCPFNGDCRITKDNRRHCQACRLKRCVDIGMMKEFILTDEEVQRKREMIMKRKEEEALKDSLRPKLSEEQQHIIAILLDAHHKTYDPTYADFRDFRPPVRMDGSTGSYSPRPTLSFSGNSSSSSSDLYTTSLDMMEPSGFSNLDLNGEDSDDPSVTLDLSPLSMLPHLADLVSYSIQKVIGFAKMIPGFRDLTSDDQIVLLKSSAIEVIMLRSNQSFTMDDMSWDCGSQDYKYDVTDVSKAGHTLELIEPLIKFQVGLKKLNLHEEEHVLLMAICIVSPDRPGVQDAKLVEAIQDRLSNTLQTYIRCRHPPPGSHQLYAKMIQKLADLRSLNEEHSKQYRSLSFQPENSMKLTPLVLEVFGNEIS
Experiment: Ratio of 1alpha,25-(OH)2D3 ED50 to compound ED50 for VDR-mediated 24-hydroxylase gene expression in rat ROS 17/2.8 cells after 16 hrs by luciferase reporter assay
Type: cell-based
For each of the molecules below, state its Ratio ED50.
One number for each entry.

Completed entries (count: 2):
• C=C1CC/C(=C\C=C2/CCC[C@]3(C)[C@@H]([C@@H](C)CCCC(C)(C)O)CC[C@@H]23)C[C@H]1O = 0.07
• C=C1CC/C(=C\C=C2/CCC[C@]3(C)[C@@H]([C@H](C)CCCC(C)(C)O)CC[C@@H]23)C[C@H]1O = 0.001

We now examine a further molecule.
Input: Entry C=C1CC/C(=C/C=C2\CCC[C@]3(C)[C@@H]([C@@H](C)CCCC(C)(C)O)CC[C@@H]23)C[C@H]1O has what Ratio ED50?
Output: 2
